target: human albumin (human, UniProt P02768 25-609); test: phage ELISA
Where no end group is shown, it is not given here.

binder: WEDLCLPDWGCLWED (phage clone, Library RBC) [RBC-R5]
binding result: no binding
--
binder: RWQTEDVCLPKWGCLFGDGV (phage clone, Library RB) [RB-B1]
binding result: no binding
--
binder: SEDFCLPVWGCLWED (phage clone, Library RBC) [RBC-R9]
binding result: no binding
--
binder: MDDLCLPNWGCLWGD (phage clone, Library RBC) [RBC-R2]
binding result: no binding
--
binder: MDDICLHHWGCLWDE (phage clone, Library RBC) [RBC-R1]
binding result: no binding
--
binder: NTCADLVRLGLECWA (phage clone, Library RD) [RD-R7]
binding result: no binding
--
binder: QGGMGDFCLPQWGCLWGEDL (phage clone, Library RB) [RB-R17]
binding result: no binding
--
binder: DICLPVWGCLW (phage clone, Library RC) [RC-R2]
binding result: no binding
--
binder: GEDWCDSTLLAFDLCGEGAR (phage clone, Library BA) [BA-B44]
binding result: no binding
--
binder: VWDLCLPQWGCLWDE (phage clone, Library RBC) [RBC-R11]
binding result: no binding
--
binder: QRQVVDFCLPQWGCLWGDGS (phage clone, Library RB) [RB-R14]
binding result: no binding
--
binder: KSRMGDFCLPEWGCLWGDEL (phage clone, Library RB) [RB-R9]
binding result: no binding
--
binder: DTCEDLVRLGLECWA (phage clone, Library RD) [RD-R5]
binding result: no binding
--
binder: DICLPRWGCLW (phage clone, Library RC) [RC-R13]
binding result: no binding
--
binder: EEDLCLPVWGCLWGA (not fully specified (bridges); cysteine pairing not given here, phage clone, Library RBC) [RBC-R14]
binding result: no binding
